B1: Pistol ribozyme (parent)
chain: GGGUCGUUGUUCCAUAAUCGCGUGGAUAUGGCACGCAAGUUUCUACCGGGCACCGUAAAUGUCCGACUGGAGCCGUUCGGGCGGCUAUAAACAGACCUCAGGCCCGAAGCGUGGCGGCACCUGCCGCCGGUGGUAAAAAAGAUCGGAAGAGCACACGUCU

variants of: B1; experiment: aptazyme ON/OFF ratio, guanine; higher = stronger switching; co-transcriptional cleavage with and without guanine
measured-endpoint: aptazyme ON/OFF ratio
Answers are plain numbers.

>>> reported("U8A U11G C13A")
1.03

List aptazyme ON/OFF ratio for every entry below, keeping the order given.
1. U7G U8A G9C U10G U11A C13G
2. U7C U8G U10A U11G C13U

Result:
1. 1.02
2. 1.28

List aptazyme ON/OFF ratio for every entry below, keeping the order given.
1. U7C U8C U10C U11G
2. U7G G9A U10C U11C C13A
3. U7A U8A G9U U11C C12A C13G
4. U7G U8C G9C U11A C12A
5. C13A
6. U7C U8C U10C U11G C12U
7. U8A U10G U11G C13G
8. U7C G9A U11C C13A

Result:
1: 1.23; 2: 1.04; 3: 1.13; 4: 1.19; 5: 1.36; 6: 1.2; 7: 1.28; 8: 1.07

List aptazyme ON/OFF ratio for every entry below, keeping the order given.
1. U7C G9C U11G C13U
2. U7A G9A U10A C12A

Result:
1. 1.06
2. 1.3

List aptazyme ON/OFF ratio for every entry below, keeping the order given.
1. U7C U10A U11A C12G C13G
2. U7A U8A G9U U10A U11A C12G C13G
3. U7A U8A G9U U10G C12U C13A
4. U11A C12U C13G
5. U7C U8C G9A C12G C13A

Result:
[1.33, 1.14, 1.17, 1.37, 1.25]

List aptazyme ON/OFF ratio for every entry below, keeping the order given.
1. U7C U8G G9C U11A C12U C13A
2. U7G U8G U10A U11C
3. U7A U8C U10A U11G C12U

Result:
1. 1.19
2. 1.09
3. 1.27

Q: Could you please provide reported aptazyme ON/OFF ratio for U7G U8C G9A U10C U11G C12G C13A ? Thanks!
Result: 1.08

Data origin: the RNAGym collection of RNA variant scans (doi:10.1021/acssynbio.7b00057)
